conditions: in n-propanol, 318.15 K
Measured endpoint: solubility (mole fraction)
A bare number is all that is needed in reply.

Prompt line: Given the entry CC1Cc2ccccc2N1NC(=O)c1ccc(Cl)c(S(N)(=O)=O)c1 (stereo unspecified) , report its measured solubility (mole fraction).
Response line: 0.0219

* * *

details: in ethanol, 313.15 K
Measured endpoint: solubility (mole fraction)
API doc: respond with a numeric literal and nothing else, no unit.

Prompt line: Name the reported solubility (mole fraction) value associated with the compound CC1Cc2ccccc2N1NC(=O)c1ccc(Cl)c(S(N)(=O)=O)c1 (stereo unspecified)
Response line: 0.0227

* * *

conditions: in ethanol, 318.15 K
Measured endpoint: solubility (mole fraction)
Reply with just the number.

Prompt line: Looking for the measured solubility (mole fraction) of CC1Cc2ccccc2N1NC(=O)c1ccc(Cl)c(S(N)(=O)=O)c1 (stereo unspecified) , can you help?
Response line: 0.0275
